Each item that follows carries a reported T/C.
Tested on: P388 leukemia ip, CD2F1 mice, survival T/C
ASSAY_PROCEDURE: NCI In Vivo Anticancer Drug Screen. Data for tumor model P388 Leukemia (intraperitoneal) in CD2F1 (CDF1) mice
APPLIED_CONDITIONS: endpoint: median survival time; dose: 100.0 mg/kg/injection; schedule: Q01DX009 (ip); vehicle: suspension in saline; higher = longer survival
Toxic doses and inconclusive results are not listed.
MEASURED_PROPERTY: T/C

{"GIVEN_SMILES": "O=C(O)C12CC3CC(CC(C3)C1)C2.O=C(O)C12CC3CC(CC(C3)C1)C2.O=C(O)C12CC3CC(CC(C3)C1)C2.O=C(O)C12CC3CC(CC(C3)C1)C2.[Rh].[Rh]", "REPORTED_RESULT": "120 % of control"}
{"GIVEN_SMILES": "O=[N+]([O-])c1ccc(CS(=O)(=O)c2cccs2)o1", "REPORTED_RESULT": "100 % of control"}
{"GIVEN_SMILES": "Cc1cc(NC(=S)SCc2ccc(Cl)cc2)ccc1Cl", "REPORTED_RESULT": "92 % of control"}
{"GIVEN_SMILES": "Cc1ccc(NC(=S)SCc2ccc([N+](=O)[O-])cc2)cc1C", "REPORTED_RESULT": "107 % of control"}
{"GIVEN_SMILES": "Cc1c2cccc1CSCc1cccc(c1C)CSC2", "REPORTED_RESULT": "92 % of control"}
{"GIVEN_SMILES": "CCCC[N+](CCCC)(CCCC)CCCC.O=C([O-])[O-].O=C([O-])[O-].[Co+3].[NH-]CC[NH-]", "REPORTED_RESULT": "120 % of control"}
